# Test system: rice
# Protocol notes: Low temperature assay on rice seedlings
# Format: in vivo
# Cond: 1 mg/l, 1 °C, 6 days
Quantity measured: Area of leaf (cm^2)
Write the answer as a number in cm^2, unit excluded.

I am curious: what Area of leaf value has been reported for CC(C)[C@H](C)[C@@H](O)[C@H](O)[C@@H](C)[C@H]1CCC2C3CC(=O)C4C[C@H](O)CC[C@]4(C)C3CC[C@@]21C (stereo partly drawn) ?
11

Likewise for CC(C)(O)CC[C@@H](O)[C@](C)(O)[C@H]1CC[C@@]2(O)[C@@H]3CC(=O)[C@@H]4C[C@@H](O)[C@@H](O)C[C@]4(C)[C@H]3CC[C@]12C ?
11.2

Likewise for C=C(C(C)C)[C@@H](O)[C@H](O)[C@@H](C)[C@H]1CCC2C3COC(=O)C4C[C@H](O)[C@H](O)C[C@]4(C)C3CC[C@@]21C (stereo partly drawn) ?
11

Likewise for CC[C@@H](C(C)C)[C@@H](O)[C@H](O)[C@@H](C)[C@H]1CCC2C3COC(=O)C4C[C@H](O)[C@H](O)C[C@]4(C)C3CC[C@@]21C (stereo partly drawn) ?
11.2

Likewise for CC(C)C[C@@H](O)[C@H](O)[C@@H](C)[C@H]1CCC2C3CC(=O)C4C[C@H](O)[C@H](O)C[C@]4(C)C3CC[C@@]21C (stereo partly drawn) ?
11.2

Likewise for CC(C)[C@H](C)[C@@H](O)[C@H](O)[C@@H](C)[C@H]1CCC2C3COC(=O)C4C[C@H](O)[C@H](O)C[C@]4(C)C3CC[C@@]21C (stereo partly drawn) ?
11.2

###

# Test system: rice
# Protocol notes: Low temperature assay on rice seedlings
# Type: in vivo
# Cond: 0.0001 mg/l, 3 °C, 12 days
Quantity measured: Area of leaf (cm^2)
Write the answer as a number in cm^2, unit excluded.

I am curious: what Area of leaf value has been reported for CC(C)[C@H](C)[C@@H](O)[C@H](O)[C@@H](C)[C@H]1CCC2C3CC(=O)C4C[C@H](O)CC[C@]4(C)C3CC[C@@]21C (stereo partly drawn) ?
13

Likewise for CC(C)(O)CC[C@@H](O)[C@](C)(O)[C@H]1CC[C@@]2(O)[C@@H]3CC(=O)[C@@H]4C[C@@H](O)[C@@H](O)C[C@]4(C)[C@H]3CC[C@]12C ?
13.2

Likewise for CC(C)[C@H](C)[C@@H](O)[C@H](O)[C@@H](C)[C@H]1CCC2C3COC(=O)C4C[C@H](O)[C@H](O)C[C@]4(C)C3CC[C@@]21C (stereo partly drawn) ?
13.2

Likewise for CC(C)C[C@@H](O)[C@H](O)[C@@H](C)[C@H]1CCC2C3CC(=O)C4C[C@H](O)[C@H](O)C[C@]4(C)C3CC[C@@]21C (stereo partly drawn) ?
13.2

Likewise for CC[C@@H](C(C)C)[C@@H](O)[C@H](O)[C@@H](C)[C@H]1CCC2C3COC(=O)C4C[C@H](O)[C@H](O)C[C@]4(C)C3CC[C@@]21C (stereo partly drawn) ?
13.2

Likewise for C=C(C(C)C)[C@@H](O)[C@H](O)[C@@H](C)[C@H]1CCC2C3COC(=O)C4C[C@H](O)[C@H](O)C[C@]4(C)C3CC[C@@]21C (stereo partly drawn) ?
13.2
